inhibition at 10 µM for assorted compounds
TARGET_OF_ASSAY: wild-type human cardiac sodium channel, hNav1.5 (Homo sapiens)
RUN_DESCRIPTION: Late INa screening assay (automated whole cell patch clamp, PatchXpress)
Type: cell-based
TEST_CONDITIONS: compound at 10 μM; HEK293 cells expressing hNav1.5; late INa generated with 10 μM Tefluthrin (or 50 nM ATX II); read-out: LateINa_10 uM (percent block of late INa)
Enter your answer as a number in %; do not include the unit.

// worked examples, inhibition at 10 µM included
SUBSTANCE_SMILES: COC(=O)c1ccc(-c2ccc3nnc(C(F)(F)F)n3c2)cc1
RESULT_VALUE: 53.9
//
SUBSTANCE_SMILES: CC(C)(O)c1nnc2ccc(-c3ccc(Oc4ccccc4)cc3)nn12
RESULT_VALUE: 48.6

Entry FC(F)(F)c1nnc2ccc(-c3ccc(Oc4ccccc4)cc3)nn12 , tested on wild-type human cardiac sodium channel, hNav1.5 (Homo sapiens), has a reported inhibition at 10 µM of 44.7

Entry FC(F)(F)c1cc(-c2ccc3nnc(C(F)(F)F)n3c2)ccc1Cl , tested on wild-type human cardiac sodium channel, hNav1.5 (Homo sapiens), has a reported inhibition at 10 µM of 51.2

Entry CCC(=O)Nc1cc(-c2ccc(OC(F)(F)F)cc2)cn2c(C)nnc12 , tested on wild-type human cardiac sodium channel, hNav1.5 (Homo sapiens), has a reported inhibition at 10 µM of 20.5

Entry NS(=O)(=O)c1ccc(-c2nnc3ccc(-c4ccc(OC(F)(F)F)cc4)cn23)cc1 , tested on wild-type human cardiac sodium channel, hNav1.5 (Homo sapiens), has a reported inhibition at 10 µM of 17.5

Entry FC(F)(F)Oc1ccc(-c2ccc3nnc(C(F)(F)F)n3c2)c2cccnc12 , tested on wild-type human cardiac sodium channel, hNav1.5 (Homo sapiens), has a reported inhibition at 10 µM of 63.1

---

TARGET_OF_ASSAY: wild-type human cardiac sodium channel, hNav1.5 (Homo sapiens)
RUN_DESCRIPTION: Late INa screening assay (automated whole cell patch clamp, PatchXpress)
Format: cell-based
TEST_CONDITIONS: compound at 10 μM; HEK293 cells expressing hNav1.5; late INa generated with 10 μM Tefluthrin (or 50 nM ATX II); read-out: LateINa_10 uM (percent block of late INa)
inhibition at 10 µM for assorted compounds
Enter your answer as a number in %; do not include the unit.

// worked examples, inhibition at 10 µM included
COMPOUND: COC(=O)/C=C/c1nc(C(F)(F)F)n2cc(-c3ccc(OC(F)(F)F)cc3)ccc12 [BHN-58]
RESULT_UNIT: %
RESULT_VALUE: 27.6

COMPOUND: FC(F)(F)c1nnc2ccc(-c3ccc(Oc4ccc(Cl)cc4)cc3)cn12 [BHN-65]
RESULT_UNIT: %
RESULT_VALUE: 85.7

COMPOUND: CS(=O)(=O)Nc1ccc(-c2nnc3ccc(-c4ccc(OC(F)(F)F)cc4)cn23)cc1 [BHN-75]
RESULT_UNIT: %
RESULT_VALUE: 30.1

Now turn to the next compound.
For record CC(C)c1nnc2ccc(-c3ccc(Oc4ccccc4)cc3)nn12 [BHN-32] the listed inhibition at 10 µM is 83.4

---

TARGET_OF_ASSAY: wild-type human cardiac sodium channel, hNav1.5 (Homo sapiens, UniProt Q14524)
Sequence (Q14524 whole entry): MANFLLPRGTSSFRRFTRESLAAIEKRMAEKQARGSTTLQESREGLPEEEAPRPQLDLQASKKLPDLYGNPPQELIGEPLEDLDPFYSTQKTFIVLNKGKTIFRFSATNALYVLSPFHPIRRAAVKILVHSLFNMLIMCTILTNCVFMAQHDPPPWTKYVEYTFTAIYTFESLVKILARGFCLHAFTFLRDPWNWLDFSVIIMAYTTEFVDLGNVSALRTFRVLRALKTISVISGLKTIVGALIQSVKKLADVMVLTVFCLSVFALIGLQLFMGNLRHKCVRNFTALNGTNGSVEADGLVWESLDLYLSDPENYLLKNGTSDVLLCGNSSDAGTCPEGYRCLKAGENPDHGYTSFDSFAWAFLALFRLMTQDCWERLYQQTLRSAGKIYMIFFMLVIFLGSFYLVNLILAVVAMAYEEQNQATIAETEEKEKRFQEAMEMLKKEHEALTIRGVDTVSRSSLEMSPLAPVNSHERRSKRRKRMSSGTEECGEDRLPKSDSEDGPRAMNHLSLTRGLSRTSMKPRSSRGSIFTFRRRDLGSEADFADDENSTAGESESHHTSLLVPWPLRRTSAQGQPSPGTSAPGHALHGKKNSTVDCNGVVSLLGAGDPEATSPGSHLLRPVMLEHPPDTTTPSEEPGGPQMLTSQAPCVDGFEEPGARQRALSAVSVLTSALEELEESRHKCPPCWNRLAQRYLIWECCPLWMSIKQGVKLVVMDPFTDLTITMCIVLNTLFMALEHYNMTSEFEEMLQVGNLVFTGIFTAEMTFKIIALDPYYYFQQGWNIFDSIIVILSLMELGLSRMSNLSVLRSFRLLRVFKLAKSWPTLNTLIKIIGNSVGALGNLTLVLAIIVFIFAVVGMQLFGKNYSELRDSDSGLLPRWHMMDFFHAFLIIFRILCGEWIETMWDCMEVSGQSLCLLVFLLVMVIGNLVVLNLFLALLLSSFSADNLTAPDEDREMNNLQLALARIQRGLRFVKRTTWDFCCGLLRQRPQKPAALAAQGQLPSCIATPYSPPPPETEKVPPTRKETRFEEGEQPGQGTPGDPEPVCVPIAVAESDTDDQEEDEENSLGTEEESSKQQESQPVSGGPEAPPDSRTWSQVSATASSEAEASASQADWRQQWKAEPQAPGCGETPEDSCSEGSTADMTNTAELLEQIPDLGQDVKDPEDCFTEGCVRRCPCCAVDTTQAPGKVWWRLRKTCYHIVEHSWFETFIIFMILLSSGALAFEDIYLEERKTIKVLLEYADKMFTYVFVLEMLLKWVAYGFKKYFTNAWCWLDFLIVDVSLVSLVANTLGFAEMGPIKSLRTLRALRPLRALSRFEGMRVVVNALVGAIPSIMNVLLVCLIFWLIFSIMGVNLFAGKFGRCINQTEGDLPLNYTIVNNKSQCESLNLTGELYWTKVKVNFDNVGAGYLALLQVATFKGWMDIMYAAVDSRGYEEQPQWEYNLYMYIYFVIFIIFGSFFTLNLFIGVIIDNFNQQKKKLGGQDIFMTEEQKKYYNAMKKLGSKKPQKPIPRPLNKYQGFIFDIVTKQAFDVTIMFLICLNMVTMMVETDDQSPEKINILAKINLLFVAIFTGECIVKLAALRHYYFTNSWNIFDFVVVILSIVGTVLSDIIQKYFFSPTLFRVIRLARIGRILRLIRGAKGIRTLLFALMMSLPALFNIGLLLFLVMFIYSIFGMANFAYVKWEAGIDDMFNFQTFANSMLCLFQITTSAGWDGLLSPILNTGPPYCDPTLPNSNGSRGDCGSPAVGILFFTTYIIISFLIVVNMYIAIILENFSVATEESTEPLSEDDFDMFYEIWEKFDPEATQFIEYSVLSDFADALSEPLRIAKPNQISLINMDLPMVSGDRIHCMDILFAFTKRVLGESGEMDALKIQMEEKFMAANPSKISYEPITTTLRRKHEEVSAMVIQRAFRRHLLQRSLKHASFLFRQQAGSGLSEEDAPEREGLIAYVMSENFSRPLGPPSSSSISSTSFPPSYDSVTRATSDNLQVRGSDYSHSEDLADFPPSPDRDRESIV
RUN_DESCRIPTION: Late INa screening assay (automated whole cell patch clamp, PatchXpress)
Format: cell-based
TEST_CONDITIONS: compound at 1 μM; HEK293 cells expressing hNav1.5; late INa generated with 10 μM Tefluthrin (or 50 nM ATX II); read-out: LateINa_1 uM (percent block of late INa)
inhibition at 1 µM for assorted compounds
Enter your answer as a number in %; do not include the unit.

COMPOUND: Cn1ccc(COC(F)(F)c2nnc3ccc(-c4ccc(OC(F)(F)F)cc4)cn23)n1 [BHN-301]
TARGET_OF_ASSAY: wild-type human cardiac sodium channel, hNav1.5 (Homo sapiens, UniProt Q14524)
inhibition at 1 µM, %: 29.9

For record FC(F)(F)Oc1ccc(COCc2nnc3ccc(-c4ccc(OC(F)(F)F)cc4)cn23)cc1 [BHN-242] the listed inhibition at 1 µM is 72.2

For record CC(OC(F)(F)c1nnc2ccc(-c3ccc(OC(F)(F)F)cc3)cn12)c1ccccn1 (stereo not drawn) [BHN-230] the listed inhibition at 1 µM is 42.3

For record OC(c1nnc2ccc(-c3ccc(OC(F)(F)F)cc3)cn12)C(F)(F)F (stereo not drawn) [BHN-155] the listed inhibition at 1 µM is 16.2

For record Fc1cc(-c2ccc3nnc(C(F)(F)F)n3n2)ccc1OC(F)(F)F [BHN-209] the listed inhibition at 1 µM is 61

For record CC1(C)Cc2cccc(COC(F)(F)c3nnc4ccc(-c5ccc(OC(F)(F)F)cc5)cn34)c2O1 [BHN-321] the listed inhibition at 1 µM is 65.6

---

TARGET_OF_ASSAY: wild-type human cardiac sodium channel, hNav1.5 (Homo sapiens, UniProt Q14524)
RUN_DESCRIPTION: Late INa screening assay (automated whole cell patch clamp, PatchXpress)
Assay type: cell-based
TEST_CONDITIONS: compound at 1 μM; HEK293 cells expressing hNav1.5; late INa generated with 10 μM Tefluthrin (or 50 nM ATX II); read-out: LateINa_1 uM (percent block of late INa)
READOUT_NAME: inhibition at 1 µM (%)
Enter your answer as a number in %; do not include the unit.

// worked examples, inhibition at 1 µM included
COMPOUND: CN(C)CCOCC(F)(F)c1nnc2ccc(-c3ccc(OC(F)(F)F)cc3)cn12
RESULT_UNIT: %
inhibition at 1 µM: 15.6
//
COMPOUND: FC1(F)CCN(c2nnc3ccc(-c4ccc(OC(F)(F)F)cc4)cn23)CC1
RESULT_UNIT: %
inhibition at 1 µM: 38.5
//
COMPOUND: FC(F)(F)c1ccc(C#Cc2ccc3nnc(Oc4ccccc4)n3c2)cc1
RESULT_UNIT: %
inhibition at 1 µM: 28.2

For record Cn1nc(COC(F)(F)c2nnc3ccc(-c4ccc(OC(F)(F)F)cc4)cn23)c2ccccc21 the listed inhibition at 1 µM is 68.5

For record N#CC1(c2ccc(-c3ccc4nnc(C(F)(F)F)n4c3)cc2)CCOCC1 the listed inhibition at 1 µM is 24.6

---

TARGET_OF_ASSAY: wild-type human cardiac sodium channel, hNav1.5 (Homo sapiens)
RUN_DESCRIPTION: Late INa screening assay (automated whole cell patch clamp, PatchXpress)
Assay type: cell-based
TEST_CONDITIONS: compound at 1 μM; HEK293 cells expressing hNav1.5; late INa generated with 10 μM Tefluthrin (or 50 nM ATX II); read-out: LateINa_1 uM (percent block of late INa)
Lab note: anything with inhibition at 1 µM at or over 50% counts as label 1; the rest go in label 0.

Solved cases (5 shown):
SUBSTANCE_SMILES: CC#CCOC(F)(F)c1nnc2ccc(-c3ccc(OC(F)(F)F)cc3)cn12
TARGET_OF_ASSAY: wild-type human cardiac sodium channel, hNav1.5 (Homo sapiens)
ASSIGNED_LABEL: label 1
//
SUBSTANCE_SMILES: FC(F)(F)c1nnc2ccc(-c3ccc(Oc4cccnc4)cc3)cn12
TARGET_OF_ASSAY: wild-type human cardiac sodium channel, hNav1.5 (Homo sapiens)
ASSIGNED_LABEL: label 0
//
SUBSTANCE_SMILES: COCC(F)(F)c1nnc2ccc(C#Cc3ccc(C(F)(F)F)cc3)cn12
TARGET_OF_ASSAY: wild-type human cardiac sodium channel, hNav1.5 (Homo sapiens)
ASSIGNED_LABEL: label 1
//
SUBSTANCE_SMILES: FC(F)(F)Oc1ccc(-c2ccc3nnc(C(F)(F)OCc4ccccc4-c4ccc(C5CC5)nc4)n3c2)cc1
TARGET_OF_ASSAY: wild-type human cardiac sodium channel, hNav1.5 (Homo sapiens)
ASSIGNED_LABEL: label 1
//
SUBSTANCE_SMILES: FC(F)(F)COc1ccc(-c2ccc3nnc(C(F)(F)F)n3c2)cn1
TARGET_OF_ASSAY: wild-type human cardiac sodium channel, hNav1.5 (Homo sapiens)
ASSIGNED_LABEL: label 1

Request: Does inhibition at 1 µM meet or surpass 50% for COC(C)(C)c1ccc(-c2ccc3nnc(C(F)(F)F)n3c2)cc1 ?
Result: label 1

Request: Does inhibition at 1 µM meet or surpass 50% for COCC(F)(F)c1nnc2ccc(-c3cc(F)c(Oc4ccccc4)c(F)c3)cn12 ?
Result: label 0

Request: Does inhibition at 1 µM meet or surpass 50% for Cc1c(-c2ccc(OC(F)(F)F)cc2)ccc2nnnn12 ?
Result: label 0

---

TARGET_OF_ASSAY: wild-type human cardiac sodium channel, hNav1.5 (Homo sapiens)
RUN_DESCRIPTION: Late INa screening assay (automated whole cell patch clamp, PatchXpress)
Format: cell-based
TEST_CONDITIONS: compound at 1 μM; HEK293 cells expressing hNav1.5; late INa generated with 10 μM Tefluthrin (or 50 nM ATX II); read-out: LateINa_1 uM (percent block of late INa)
READOUT_NAME: inhibition at 1 µM (%)
Enter your answer as a number in %; do not include the unit.

For record FC(F)(F)Oc1ccc(-c2ccc3nnc(COC(F)(F)c4cccnc4)n3c2)cc1 [BHN-257] the listed inhibition at 1 µM is 46.2

For record FC(F)(F)Oc1ccc(-c2ccc3nnc(C(F)(F)OCc4ccccc4)n3c2)cc1 [BHN-148] the listed inhibition at 1 µM is 71.7

For record OC1(COC(F)(F)c2nnc3ccc(-c4ccc(OC(F)(F)F)cc4)cn23)CCC1 [BHN-248] the listed inhibition at 1 µM is 50.2

For record FC(F)(F)c1nnc2ccc(C#Cc3ccccc3)cn12 [BHN-163] the listed inhibition at 1 µM is 57.3

For record FC(F)(F)c1nnc2ccc(-c3ccc(Oc4ccc(Cl)cc4)cc3)cn12 [BHN-65] the listed inhibition at 1 µM is 55.6

For record FC(F)(F)Oc1ccc(-c2ccc3nnc(C(F)(F)OCC4CC4(F)F)n3c2)cc1 (centres unmarked) [BHN-294] the listed inhibition at 1 µM is 77.6

For record FC(F)(F)c1nnc2ccc(-c3ccc(C4CC4)cc3)cn12 [BHN-90] the listed inhibition at 1 µM is 63.4

For record FC(F)(F)c1nnc2ccc(-c3ccc4ccccc4c3)cn12 [BHN-106] the listed inhibition at 1 µM is 38.2

For record FC(F)(F)c1nnc2ccc(-c3cccc4ccccc34)cn12 [BHN-120] the listed inhibition at 1 µM is 20.4

For record Cn1c(COC(F)(F)c2nnc3ccc(-c4ccc(OC(F)(F)F)cc4)cn23)nc2ccccc21 [BHN-296] the listed inhibition at 1 µM is 40.1

For record Fc1cc(-c2ccc3nnc(C(F)(F)F)n3c2)ccc1OC(F)(F)F [BHN-146] the listed inhibition at 1 µM is 58.2

For record c1ccc(Oc2ccc(-c3ccc4nnc(C5CC5)n4n3)cc2)cc1 [BHN-39] the listed inhibition at 1 µM is 44.4

For record FC(F)(F)Oc1ccc(-c2ccc3nnc(C(F)(F)F)n3c2)c2cccnc12 [BHN-108] the listed inhibition at 1 µM is 45.7

For record FC(F)(F)COc1nnc2ccc(-c3ccc(OC(F)(F)F)cc3)cn12 [BHN-186] the listed inhibition at 1 µM is 45.2

For record FC(F)(F)COc1ccc(-c2ccc3cnc(C(F)(F)F)n3c2)cc1 [BHN-28] the listed inhibition at 1 µM is 46.1

For record Cc1nccn1-c1ccccc1COC(F)(F)c1nnc2ccc(-c3ccc(OC(F)(F)F)cc3)cn12 [BHN-312] the listed inhibition at 1 µM is 51.4

For record CC(OCc1ccccn1)c1nnc2ccc(-c3ccc(OC(F)(F)F)cc3)cn12 (centres unmarked) [BHN-255] the listed inhibition at 1 µM is 22.8

For record FC(F)(F)c1nnc2ccc(-c3ccc(OC4CC4)nc3)cn12 [BHN-180] the listed inhibition at 1 µM is 21.1
